TARGET OR SYSTEM: T1, CD3 epsilon homodimer protein (UniProt P07766 23-126)
T1 construct: also called CD3 (CD3 epsilon)
T1 sequence (P07766 23-126): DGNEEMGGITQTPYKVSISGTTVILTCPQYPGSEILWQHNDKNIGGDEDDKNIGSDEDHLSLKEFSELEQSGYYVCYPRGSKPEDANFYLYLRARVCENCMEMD
EXPERIMENT DESCRIPTION: SPR, antibody over immobilised CD3e homodimer;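 note: SPR at 25 °C with CD3 epsilon homodimer amine-coupled to a CM4 sensor chip and antibody flowed over as analyte in HBS-EP+ running buffer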
VALUE KIND: KD ratio to GLS3000
Would you mind answering with just the numeric figure?

So for CE115HA000/GLS3000 F55H (antibody, IgG1, name in Kabat numbering, V domains shown, one-arm IgG1) VH: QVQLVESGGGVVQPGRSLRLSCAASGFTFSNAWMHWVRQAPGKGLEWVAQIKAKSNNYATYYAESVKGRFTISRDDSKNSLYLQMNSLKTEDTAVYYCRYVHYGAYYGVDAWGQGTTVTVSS VL: DIVMTQSPLSLPVTPGEPASISCRSSQSLVHSNRNTYLHWYQQKPGQAPRLLIYKVSNRHSGVPDRFSGSGSGTDFTLKISRVEAEDVGVYYCGQGTQVPYTFGQGTKLEIK , the logged KD ratio to GLS3000 turned out to be 1.02

So for CE115HA000/GLS3000 S25L (antibody, IgG1, name in Kabat numbering, V domains shown, one-arm IgG1) VH: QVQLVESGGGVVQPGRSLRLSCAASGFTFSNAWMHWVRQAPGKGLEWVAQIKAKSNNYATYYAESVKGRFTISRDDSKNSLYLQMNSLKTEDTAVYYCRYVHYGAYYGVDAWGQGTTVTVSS VL: DIVMTQSPLSLPVTPGEPASISCRLSQSLVHSNRNTYLHWYQQKPGQAPRLLIYKVSNRFSGVPDRFSGSGSGTDFTLKISRVEAEDVGVYYCGQGTQVPYTFGQGTKLEIK , the logged KD ratio to GLS3000 turned out to be 4.93

So for CE115HA000/GLS3000 F55D (antibody, IgG1, name in Kabat numbering, V domains shown, one-arm IgG1) VH: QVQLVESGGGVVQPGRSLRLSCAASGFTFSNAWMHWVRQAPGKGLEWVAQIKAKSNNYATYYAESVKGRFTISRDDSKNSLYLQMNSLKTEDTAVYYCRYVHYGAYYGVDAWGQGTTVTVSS VL: DIVMTQSPLSLPVTPGEPASISCRSSQSLVHSNRNTYLHWYQQKPGQAPRLLIYKVSNRDSGVPDRFSGSGSGTDFTLKISRVEAEDVGVYYCGQGTQVPYTFGQGTKLEIK , the logged KD ratio to GLS3000 turned out to be 1.02

So for CE115HA000/GLS3000 T97P (antibody, IgG1, name in Kabat numbering, V domains shown, one-arm IgG1) VH: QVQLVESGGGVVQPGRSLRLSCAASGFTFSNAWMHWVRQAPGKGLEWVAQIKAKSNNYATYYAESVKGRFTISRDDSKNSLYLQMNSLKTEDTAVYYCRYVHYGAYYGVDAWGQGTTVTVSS VL: DIVMTQSPLSLPVTPGEPASISCRSSQSLVHSNRNTYLHWYQQKPGQAPRLLIYKVSNRFSGVPDRFSGSGSGTDFTLKISRVEAEDVGVYYCGQGTQVPYPFGQGTKLEIK , the logged KD ratio to GLS3000 turned out to be 3.35

As a next step, examine the binder that follows.
So for CE115HA000/GLS3000 S27eF (antibody, IgG1, name in Kabat numbering, V domains shown, one-arm IgG1) VH: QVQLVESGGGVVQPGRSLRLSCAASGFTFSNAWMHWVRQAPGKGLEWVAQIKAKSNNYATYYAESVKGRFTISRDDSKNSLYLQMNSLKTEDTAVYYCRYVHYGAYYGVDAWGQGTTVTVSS VL: DIVMTQSPLSLPVTPGEPASISCRSSQSLVHFNRNTYLHWYQQKPGQAPRLLIYKVSNRFSGVPDRFSGSGSGTDFTLKISRVEAEDVGVYYCGQGTQVPYTFGQGTKLEIK , the logged KD ratio to GLS3000 turned out to be 1.16
